- System: VEGF165 (soluble) (human, UniProt P15692-4 27-191)
- Sequence (P15692 other isoform, or with tags, fused parts or gaps): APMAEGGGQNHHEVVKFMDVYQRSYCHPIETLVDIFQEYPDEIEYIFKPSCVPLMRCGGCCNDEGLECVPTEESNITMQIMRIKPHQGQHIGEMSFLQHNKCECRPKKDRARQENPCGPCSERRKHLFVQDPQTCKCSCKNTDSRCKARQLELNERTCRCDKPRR
- Run description: F-EMSA; 1 mM Mg2+; 10 mM HEPES pH 7.9, 125 mM NaCl, 25 mM KCl, 1 mM MgCl2; F-EMSA at room temperature for 2 h, 5% PAGE at 4 C; flow cytometry in the same buffer
- Test settings: protein: recombinant; chain copies: 2; label: 5' fluorescein (F-EMSA); 5' biotin (flow); stem-loop plus shortened second stem-loop
Measurement label: pKd
Hey, just a heads up that pKd is the negative log base 10 of the concentration in molar.

Looking up TCTAGCCCACTGCATAGAGGTAGCTACCGGTG (structured_DNA) [hVap1_SST] , I found its pKd recorded as 8.60

Entry source: paper PMC3968096
